A collection of compounds and their measured BCR/BaF3 selectivity (Kit IC50/Fms IC50)
Biological target: BCR-FMS/BaF3 cells (Homo sapiens)
Sequence (P07333 20-972 limits assumed, change not shown): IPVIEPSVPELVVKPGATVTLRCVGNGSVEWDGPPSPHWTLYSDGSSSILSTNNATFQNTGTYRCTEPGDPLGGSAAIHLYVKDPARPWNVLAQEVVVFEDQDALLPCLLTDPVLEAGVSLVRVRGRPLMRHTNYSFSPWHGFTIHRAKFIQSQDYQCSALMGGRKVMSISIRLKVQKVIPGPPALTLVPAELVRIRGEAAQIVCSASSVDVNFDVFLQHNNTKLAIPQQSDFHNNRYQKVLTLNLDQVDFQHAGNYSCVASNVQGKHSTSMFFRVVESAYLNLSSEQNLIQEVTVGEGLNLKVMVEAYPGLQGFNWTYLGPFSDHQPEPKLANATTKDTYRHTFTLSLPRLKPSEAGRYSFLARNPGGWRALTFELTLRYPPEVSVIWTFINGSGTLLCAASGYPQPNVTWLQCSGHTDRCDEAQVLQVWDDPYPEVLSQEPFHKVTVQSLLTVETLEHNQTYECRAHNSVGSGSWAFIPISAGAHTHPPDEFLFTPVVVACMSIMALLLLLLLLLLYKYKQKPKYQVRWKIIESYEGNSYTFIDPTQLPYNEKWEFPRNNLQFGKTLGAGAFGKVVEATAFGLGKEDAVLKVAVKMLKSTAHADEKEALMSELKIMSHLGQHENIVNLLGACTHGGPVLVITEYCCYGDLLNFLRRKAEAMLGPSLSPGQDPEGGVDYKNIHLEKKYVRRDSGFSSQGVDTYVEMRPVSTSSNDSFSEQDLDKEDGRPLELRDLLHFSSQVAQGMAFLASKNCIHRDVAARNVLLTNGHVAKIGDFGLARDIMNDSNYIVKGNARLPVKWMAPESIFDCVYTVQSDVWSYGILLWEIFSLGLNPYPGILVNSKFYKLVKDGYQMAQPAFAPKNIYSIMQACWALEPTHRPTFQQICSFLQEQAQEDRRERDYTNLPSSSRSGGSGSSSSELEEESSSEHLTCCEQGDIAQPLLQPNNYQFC
Experiment: BCR-FMS/BaF3 cell proliferation assay (ATPlite)
Format: cell-based
Conditions: Kit IC50/Fms IC50, BCR-KIT/BaF3 vs BCR-FMS/BaF3 cells
Procedure: Compounds are assessed in a variety of cell based assays. […] On day 1, cells are counted, then centrifuged in a conical tube for 5 minutes at 1000 rpm. […] The cells are incubated at room temperature for 10 minutes, then luminescence is read on Safire reader. The measured luminescence correlates directly with cell number, such that the reading as a function of compound concentration is used to determine the IC50 value.

>  <compound structure string>
COc1ccc(CNc2ccc(Cc3c[nH]c4ncc(F)cc34)c(F)n2)cn1

>  <BCR/BaF3 selectivity (Kit IC50/Fms IC50)>
>20

$$$$
>  <compound structure string>
COc1ccc(CNc2ncc(Cc3c[nH]c4ncc(C)cc34)cn2)cn1

>  <BCR/BaF3 selectivity (Kit IC50/Fms IC50)>
>20

$$$$
>  <compound structure string>
Fc1cncc(CNc2ccc(Cc3c[nH]c4ncc(Cl)cc34)c(F)n2)c1

>  <BCR/BaF3 selectivity (Kit IC50/Fms IC50)>
>20

$$$$
>  <compound structure string>
COc1ncc(F)cc1CNc1ccc(Cc2c[nH]c3ncc(NC(C)=O)cc23)c(F)n1

>  <BCR/BaF3 selectivity (Kit IC50/Fms IC50)>
>20

$$$$
>  <compound structure string>
COc1ccnc2[nH]cc(Cc3ccc(NCc4ccc(Cl)cc4)nc3F)c12

>  <BCR/BaF3 selectivity (Kit IC50/Fms IC50)>
<20

$$$$
>  <compound structure string>
COc1cccc(CNc2ncc(Cc3c[nH]c4ncc(Cl)cc34)s2)n1

>  <BCR/BaF3 selectivity (Kit IC50/Fms IC50)>
<20

$$$$
>  <compound structure string>
COc1ccc(CNc2ccc(Cc3c[nH]c4ncc(C)cc34)c(F)n2)cn1

>  <BCR/BaF3 selectivity (Kit IC50/Fms IC50)>
>20

$$$$
>  <compound structure string>
FC(F)(F)c1ccncc1CNc1ccc(Cc2c[nH]c3ncc(Cl)cc23)cn1

>  <BCR/BaF3 selectivity (Kit IC50/Fms IC50)>
>20

$$$$
